test system: HL-60; assay: cell viability (% survival relative to DMSO control); higher = less cytotoxic; details: 0.1 µM; 72 h; co-treatment: pictilisib 100 nM
Exercise: state measured cell viability for each of the molecules provided.
Use % as the unit, but write only the number.

Problem: Quick one: cell viability of O=c1oc2c(O)c(O)cc3c(=O)oc4c(O)c(O)cc1c4c23 [Benzoaric Acid] ?
Solution: 101

Problem: Can you check Cl.NC(CCC(=O)Nc1ccc([N+](=O)[O-])cc1)C(=O)O (stereo unspecified) [GPNA] next?
Solution: 98.5

Problem: Can you check CC[C@@]1(O)C(=O)OCc2c1cc1n(c2=O)Cc2cc3c(CN(C)C)c(O)ccc3nc2-1 [Topotecan] next?
Solution: 9.22

Problem: Can you check CCCc1cc(-c2nc(-c3ccc(C)cc3)cs2)ccn1 [Fatostatin] next?
Solution: 105

Problem: Can you check CCCCCCCCCCC[C@@H](C[C@@H]1OC(=O)[C@H]1CCCCCC)OC(=O)[C@H](CC(C)C)NC=O [Orlistat] next?
Solution: 95.6

Problem: Can you check O=C(O)C(=O)CBr [3-bromopyruvic acid] next?
Solution: 92.9

Problem: Can you check NC(=O)c1cccc(-c2cccc(OC(=O)NC3CCCCC3)c2)c1 [URB-597] next?
Solution: 100

Problem: Can you check O=C(O)CCCCC(CCSCc1ccccc1)SCc1ccccc1 (stereo unspecified) [CPI-613] next?
Solution: 88.5

Problem: Can you check O=C(O)Cn1nnc(-c2cc(N3CCC(Oc4cc(F)ccc4Br)CC3)no2)n1 [MK-8245] next?
Solution: 104

Problem: Can you check Cc1ccccc1C(C(=O)NC1CCCCC1)N(C(=O)Cn1ccnc1C)c1cccc(F)c1 (stereo unspecified) [AGI-5198] next?
Solution: 103

Problem: Can you check O=C(O)C(=S)Cc1c[nH]c2ccc(F)cc12 next?
Solution: 102

---

tested on: SHI-1; experiment: cell viability (% survival relative to DMSO control, bortezomib = 0%); higher = less cytotoxic; settings: 10000 nM; 72 h
Exercise: state measured cell viability for each of the compounds provided.
Use % as the unit, but write only the number.

Problem: Quick one: cell viability of O=C(NCCCCCCNC(=O)ONC1=CCCCC1)ONC1=CCCCC1 ?
Solution: 97.3

Problem: Can you check Nc1ccccc1C(=O)C[C@H](N)C(=O)O next?
Solution: 98.4

Problem: Can you check CN(C)c1cc(NC(=O)CNC(C)(C)C)c(O)c2c1C[C@H]1C[C@H]3[C@H](N(C)C)C(=O)C(C(N)=O)C(=O)[C@@]3(O)C(=O)C1C2=O (some centres not stated) next?
Solution: 93.4

Problem: Can you check CCOP(=O)(OCC)C(=Cc1cc(C(C)(C)C)c(O)c(C(C)(C)C)c1)P(=O)(OCC)OCC next?
Solution: 98.5

Problem: Can you check COc1cc(/C=C/C(=O)N2CCC=CC2=O)cc(OC)c1OC next?
Solution: 0.583

Problem: Can you check O[C@H]1[C@H]2[C@H](O)CCCN2C[C@H]1O next?
Solution: 102

Problem: Can you check CCCCCCCCCCC[C@@H](C[C@@H]1OC(=O)[C@H]1CCCCCC)OC(=O)[C@H](CC(C)C)NC=O next?
Solution: 102

Problem: Can you check Cc1coc2c1C(=O)C(=O)c1c-2ccc2c1CCCC2(C)C next?
Solution: 96.1

Problem: Can you check C=C(C)[C@H]1Cc2c(ccc3c2O[C@@H]2COc4cc(OC)c(OC)cc4[C@@H]2C3=O)O1 next?
Solution: 5.24

Problem: Can you check COc1ccc(C(=O)Nc2c(Cl)cncc2Cl)cc1OC1CCCC1 next?
Solution: 113

Problem: Can you check Cc1cn([C@H]2C[C@H](O)[C@@H](COP(=O)(O)OP(=O)(O)O)O2)c(=O)[nH]c1=O [Thymidine diphosphate] next?
Solution: 107

Problem: Can you check COc1ccc(S(=O)(=O)N2CCN(S(=O)(=O)c3ccc4c(c3)OCCO4)CC2)cc1 next?
Solution: 103

---

Exercise: state measured cell viability for each of the compounds provided.
test system: NOMO-1; assay: cell viability (% survival relative to DMSO control, bortezomib = 0%); higher = less cytotoxic; settings: 10 nM; 72 h
Use % as the unit, but write only the number.

Problem: Quick one: cell viability of O=C1O[C@H]([C@@H](O)CO)C(O)=C1O [Vitamin C (ascorbate)] ?
Solution: 100

Problem: Can you check Nc1nc(Cl)nc2c1ncn2[C@H]1C[C@H](O)[C@@H](CO)O1 next?
Solution: 101

Problem: Can you check O=C(NNc1ccccc1)c1ccncc1 next?
Solution: 101

Problem: Can you check N/C(=N\CCCC(N)C(=O)O)N[N+](=O)[O-] (configuration not stated) next?
Solution: 99.8

Problem: Can you check COc1ccc(S(=O)(=O)N2CCN(S(=O)(=O)c3ccc4c(c3)OCCO4)CC2)cc1 next?
Solution: 95.1

Problem: Can you check CC[C@@]1(O)C(=O)OCc2c1cc1n(c2=O)Cc2cc3c(CN(C)C)c(O)ccc3nc2-1 next?
Solution: 98.9

Problem: Can you check O=C(C1CC1)N1CC[C@@H](C=C2NNC(=O)N2c2ccc(-c3ccc4occc4c3)cc2)C1 next?
Solution: 98.6

---

system: HL-60; assay: area under dose-response curve (viability, 1 nM-10 uM) (fraction (0-1)); higher = more sensitive; settings: 72 h; co-treatment: GSK2194069 100 nM
Exercise: state measured area under dose-response curve for each of the molecules provided.

Problem: Quick one: area under dose-response curve of COc1ccc(-c2ccccc2)cc1NS(=O)(=O)c1cc(Cl)cc(Cl)c1O ?
Solution: < 0.0301

Problem: Can you check N#CC(C#N)=NNc1ccc(OC(F)(F)F)cc1 [FCCP] next?
Solution: 0.0946

Problem: Can you check COc1ccc2c(C(=S)N(C)CC(=O)O)cccc2c1C(F)(F)F [Tolrestat] next?
Solution: < 0.0301

Problem: Can you check O=C(O)CCCCC(CCSCc1ccccc1)SCc1ccccc1 (stereo not drawn) [CPI-613] next?
Solution: < 0.0301

Problem: Can you check O=C(O)C(=O)CBr [3-bromopyruvic acid] next?
Solution: < 0.0301

Problem: Can you check Oc1ccc(Nc2nc(-c3ccc(Cl)cc3)cs2)cc1 [SKI II] next?
Solution: 0.0628

Problem: Can you check O=C1c2cc([N+](=O)[O-])ccc2-n2c1nc1ccccc1c2=O [GNF-Pf-3777] next?
Solution: 0.154

Problem: Can you check COc1ccc(CNC(=O)Nc2ncc([N+](=O)[O-])s2)cc1 next?
Solution: < 0.0301

---

test system: NOMO-1; assay: cell viability (% survival relative to DMSO control, bortezomib = 0%); higher = less cytotoxic; conditions: 1 nM; 72 h
Readout Type: cell viability

Problem: Quick one: cell viability of N/C(=N\CCCC(N)C(=O)O)N[N+](=O)[O-] [L-NNA] ?
Solution: 96.4%

Problem: Can you check CC[C@H](C)C(=O)O[C@H]1C[C@@H](C)C=C2C=C[C@H](C)[C@H](CC[C@@H]3C[C@@H](O)CC(=O)O3)[C@H]21 [Lovastatin] next?
Solution: 101%

Problem: Can you check N#Cc1ccnc(N2C(=O)CC[C@H]2C(=O)N(c2cncc(F)c2)C(C(=O)NC2CC(F)(F)C2)c2ccccc2Cl)c1 (stereo partly drawn) [Ivosidenib] next?
Solution: 97.8%

---

test system: myeloid leukemia patient primary cells Pat.13; test: cell viability (% survival relative to DMSO control); higher = less cytotoxic; conditions: 100 nM; 72 h
Readout Type: cell viability (%)
Use % as the unit, but write only the number.

Problem: Quick one: cell viability of CC[C@@]1(O)C(=O)OCc2c1cc1n(c2=O)Cc2cc3c(CN(C)C)c(O)ccc3nc2-1 [Topotecan] ?
Solution: 92.3

Problem: Can you check C=C(C=NNC(=N)N)NNC(=N)N [Mitoguazone] next?
Solution: 91.2

Problem: Can you check CN(C)C(=O)n1nnnc1Cc1ccc(-c2ccccc2)cc1 next?
Solution: 92.1

---

system: K-562; assay: cell viability (% survival relative to DMSO control, bortezomib = 0%); higher = less cytotoxic; details: 1000 nM; 72 h
Exercise: state measured cell viability for each of the molecules provided.
Use % as the unit, but write only the number.

Problem: Quick one: cell viability of COc1ccc(-c2ccccc2)cc1NS(=O)(=O)c1cc(Cl)cc(Cl)c1O ?
Solution: 87.9

Problem: Can you check CN(C)c1cc(NC(=O)CNC(C)(C)C)c(O)c2c1C[C@H]1C[C@H]3[C@H](N(C)C)C(=O)C(C(N)=O)C(=O)[C@@]3(O)C(=O)C1C2=O (some centres undefined) next?
Solution: 90.6

Problem: Can you check COc1ccc(S(=O)(=O)N2CCN(S(=O)(=O)c3ccc4c(c3)OCCO4)CC2)cc1 next?
Solution: 92.5

Problem: Can you check O=C(O)Cn1nnc(-c2cc(N3CCC(Oc4cc(F)ccc4Br)CC3)no2)n1 next?
Solution: 88.2
